Provenance of the data: paper PMC8752837

Target: GST-BAK (Homo sapiens)
Construct: made in house
Sequence (Q16611 1-211): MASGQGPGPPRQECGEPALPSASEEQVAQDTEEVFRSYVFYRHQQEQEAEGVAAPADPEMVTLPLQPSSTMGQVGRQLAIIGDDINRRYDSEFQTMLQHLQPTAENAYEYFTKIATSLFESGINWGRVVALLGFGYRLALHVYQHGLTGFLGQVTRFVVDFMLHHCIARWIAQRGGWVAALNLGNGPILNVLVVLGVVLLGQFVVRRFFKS
Test: Competitive fluorescence polarization assay (displacement of BID BH3 SAHB-F)
Type: binding
Conditions: displacement of 10 nM BID BH3 SAHB-fluorescein from 1 µM GST-BAK; peptide 500−0.2 µM; 60 min RT; mean ± SD, n = 9 experiments; read-out: IC50 FP
assay-readout: IC50 (µM)
Express the result in µM but write the number alone.

substance: Ac-EDIIRNIARHLAQFGDSMDRSI-NH2 [F(3)]
unit-annotation: µM
IC50: 11.3
//
substance: Ac-EDIIRNIARHLAQVGDSYDRSI-NH2 [Y(4)]
unit-annotation: µM
IC50: 6.9
//
substance: Ac-EDIIRNIARHLAQYGDSMDRSI-NH2 [Y(3)]
unit-annotation: µM
IC50: 6.2
//
substance: Ac-EDIIRNIARHLAQVGDSFDRSI-NH2 [F(4)]
unit-annotation: µM
IC50: 11.9
//
substance: Ac-EDWIRNIARHLAQVGDSMDRSI-NH2 [W(0)]
unit-annotation: µM
IC50: 10.8
//
substance: Ac-EDIIRNIARHLAQVGDSWDRSI-NH2 [W(4)]
unit-annotation: µM
IC50: 11.5

Now for another entry.
I have this substance here, Ac-EDIWRNIARHLAQVGDSMDRSI-NH2 [W(0')] , and I need its recorded IC50.
27.4
